- ASSAYED_SYSTEM: β-secretase(BACE) (Homo sapiens)
- Construct: purchased Panvera
- EXPERIMENT_SUMMARY: BACE FS1% Inhibition Assay
- Assay type: biochemical
- CONDITION_SUMMARY: 3 μM test compound; FS1 substrate
MEASURED_METRIC: % Inhibition (FS) (%)

// below: answered molecules
CCCCC(CC)C(=O)NCCN1Cc2cc(-c3ccccc3C)ccc2N=C1N (centres unmarked) [Compound 662]; 109
Cc1ccccc1-c1ccc2c(c1)CN(CCNC(=O)C1CCC(C(F)(F)F)CC1)C(N)=N2 (centres unmarked) [Compound 694]; 84
NC1=Nc2ccc(-c3ccccc3Cl)cc2CN1CCNC(=O)C1CCOCC1 [Compound 689]; 102

1. CC(CC(=O)NCCN1Cc2cc(-c3ccccc3F)ccc2N=C1N)C(F)(F)F (centres unmarked) [Compound 681]
2. CC(C)(C)C(=O)NCCN1Cc2cc(-c3cnc4ccccc4c3)ccc2N=C1N [Compound 674]
Query block: Smaller % Inhibition (FS) value, 1 vs 2 ? Answer format: the label of the selected item.
Result block: 2
(2: 41%, 1: 103%)

* * *

- ASSAYED_SYSTEM: β-secretase(BACE) (Homo sapiens, UniProt P56817)
- Construct: purchased Panvera
- Sequence (P56817 46-501): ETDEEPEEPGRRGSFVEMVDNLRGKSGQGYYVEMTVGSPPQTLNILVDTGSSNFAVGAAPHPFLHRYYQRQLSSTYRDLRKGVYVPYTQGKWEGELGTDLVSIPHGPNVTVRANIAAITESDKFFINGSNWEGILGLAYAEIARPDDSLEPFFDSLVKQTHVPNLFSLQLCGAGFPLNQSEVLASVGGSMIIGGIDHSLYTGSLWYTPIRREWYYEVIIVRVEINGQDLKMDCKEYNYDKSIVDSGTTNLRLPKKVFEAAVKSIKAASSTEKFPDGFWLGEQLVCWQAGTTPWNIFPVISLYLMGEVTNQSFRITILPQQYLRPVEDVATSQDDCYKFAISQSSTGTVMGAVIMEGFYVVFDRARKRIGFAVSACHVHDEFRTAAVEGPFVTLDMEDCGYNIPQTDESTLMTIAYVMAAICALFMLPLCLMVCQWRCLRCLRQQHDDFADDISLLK
- EXPERIMENT_SUMMARY: BACE FS1% Inhibition Assay
- Assay type: biochemical
- CONDITION_SUMMARY: 10 μM test compound; FS1 substrate
MEASURED_METRIC: % Inhibition (FS) 10 μM (%)

CC(C)(C)c1ccc(C(=O)NCCN2Cc3cc(Oc4ccccc4)ccc3N=C2N)cc1 [Compound 156]; 40
COc1ccc2c(c1)C(CC(=O)N(C)C1CCCCC1)CC2N1Cc2cc(Oc3ccccc3)ccc2N=C1N (stereo not shown) [Compound 146]; 39
NC1=Nc2ccc(Oc3ccccc3)cc2CN1CCCNC(=O)C1CCC1 [Compound 144]; 59
CCCC(CCC(=O)NC1CCCCCC1)N1Cc2cc(Oc3ccccc3)ccc2N=C1N (stereo not shown) [Compound 128]; 108
NC1=Nc2ccc(Oc3ccccc3)cc2CN1CCNC(=O)C1CC1c1ccccc1 (stereo not shown) [Compound 139]; 61
NC1=Nc2ccc(Oc3ccccc3)cc2CN1C1CCN(C(=O)C2CCCCC2)C1 (stereo not shown) [Compound 119]; 75
CCCCCCCCCC(=O)NCCN1Cc2cc(Oc3ccccc3)ccc2N=C1N [Compound 142]; 38
NC1=Nc2ccc(Oc3ccccc3)cc2CN1C1c2ccccc2-c2c(C(=O)N(C3CCCCC3)C3CCCCC3)cccc21 (stereo not shown) [Compound 147]; 71
NC1=Nc2ccc(Oc3ccccc3)cc2CN1C(c1ccccc1)c1cccc(C(=O)N(C2CCCCC2)C2CCCCC2)c1 (stereo not shown) [Compound 132]; 118
CN(C(=O)c1ccc2c(c1)C(N1Cc3cc(Oc4ccccc4)ccc3N=C1N)CC2)C1CCCCC1 (stereo not shown) [Compound 145]; 37

P. NC1=Nc2ccc(Oc3ccccc3)cc2CN1CCCNC(=O)C1CC1 [Compound 143]
Q. NC1=Nc2ccc(Oc3ccccc3)cc2CN1CCCCNC(=O)C1CCCCC1 [Compound 115]
Query block: Param metric = % Inhibition (FS) 10 μM; output whichever of P , Q has the minimum value. // output: label of the selected item
Result block: P

I. CCCC(CCCC(=O)N(C)C1CCN(C)CC1)N1Cc2cc(Oc3ccccc3)ccc2N=C1N (stereo not shown) [Compound 106]
II. CCCCc1ccc(C(=O)NCCN2Cc3cc(Oc4ccccc4)ccc3N=C2N)cc1 [Compound 157]
Query block: # return whichever of I and II has the smaller % Inhibition (FS) 10 μM Give the label of your selection.
Result block: II
(II: 50%, I: 114%)

* * *

- ASSAYED_SYSTEM: β-secretase(BACE) (Homo sapiens)
- Construct: purchased Panvera
- EXPERIMENT_SUMMARY: BACE FS1% Inhibition Assay
- Type: biochemical
- CONDITION_SUMMARY: 3 μM test compound; FS1 substrate
- Experimental: BACE FS1% Inhibition Assay The following reagents were used in this assay: sodium acetate, PEG8000 (Sigma), DMSO, HEPES, FS1 substrate [[…]] […] The FS1-substrate stock solution was prepared in DMSO as a 10 mg/mL solution. The FS1-substrate working solution was prepared by diluting the 10 mg/mL stock solution with substrate assay buffer to a final concentration of 300 μg/mL. […] For test compounds, % inhibition was determined at each concentration as follows: [formula]
MEASURED_METRIC: % Inhibition (FS) (%)

Below, each entry is followed by its recorded % Inhibition (FS) result.
NC1=Nc2ccc(-c3ccccc3Cl)cc2CN1CCNC(=O)CCC(F)(F)F; 97
NC1=Nc2ccc(-c3ccccc3)cc2CN1CCNC(=O)CCC(F)(F)F; 78
CN(Cc1cc(-c2ccccc2)on1)C(=O)CC[C@@H](C1CCCCC1)N1Cc2cc(-c3ccccc3F)ccc2N=C1N; 65

a. CC(=O)N1CCC(C(=O)NCCN2Cc3cc(-c4ccccc4C)ccc3N=C2N)CC1
b. CN(CCc1ccccc1)C(=O)CC[C@@H](C1CCCCC1)N1Cc2cc(-c3ccccc3F)ccc2N=C1N
Query block: Could you tell me which of these two has the smaller % Inhibition (FS) figure? First: a Second: b To answer, give the label that identifies your chosen option.
Result block: a

A. CN(C(=O)CCC(C1CCCCC1)N1Cc2cc(Oc3ccccc3)ccc2N=C1N)C1(C(=O)O)CCCCC1 (stereo not shown)
B. Cc1ccccc1-c1ccc2c(c1)CN(CCNC(=O)CCC(F)(F)F)C(N)=N2
C. NC1=Nc2ccc(-c3cnc4ccccc4c3)cc2CN1CCNC(=O)C1CCC1
Query block: Order by % Inhibition (FS), ascending. Would you mind listing the labels in the order asked for?
Result block: A, C, B

* * *

- ASSAYED_SYSTEM: β-secretase(BACE) (Homo sapiens, UniProt P56817)
- Construct: purchased Panvera
- EXPERIMENT_SUMMARY: BACE FS1% Inhibition Assay
- Type: biochemical
- CONDITION_SUMMARY: 0.3 μM test compound; FS1 substrate; read-out: % Inhibition (FS) 0.3 μM
MEASURED_METRIC: inhibition at 0.3 µM (%)

P. NC1=Nc2ccc(-c3ccccc3F)cc2CN1CCC(=O)NC1C2CC3CC(C2)CC1C3 (stereo not shown)
Q. Cc1cccc(C)c1-c1ccc2c(c1)CN(Cc1cccc(C(=O)N(C)C3CCCCC3)c1)C(N)=N2
Query block: Which has the higher inhibition at 0.3 µM, P or Q ? Which one? Tell me its label.
Result block: P

* * *

Measured % Inhibition accompanies every entry in the list below.
- ASSAYED_SYSTEM: β-secretase(BACE) (Homo sapiens, UniProt P56817)
- Construct: purchased Panvera
- EXPERIMENT_SUMMARY: BACE % Inhibition Assay ((Aedens)-[…]-(Dabcyl K-amide) substrate)
- Assay type: biochemical
- CONDITION_SUMMARY: 3 μM test compound; % error ±10%

Field: example entries. Status: answers known.
CCCN1Cc2cc(Oc3cccc(NC(=O)C4CCCCC4)c3)ccc2N=C1N [Compound 44]; <30%
CC(C)CCC(=O)NCC(C1CCCCC1)N1Cc2cc(Oc3ccccc3)ccc2N=C1N (stereo not shown) [Compound 388]; 119%
CN(C(=O)[C@@H]1CCC[C@@H]1N1Cc2cc(Oc3ccccc3)ccc2N=C1N)C1CCCCC1 [Compound 72]; <30%

# evaluate next
Query block: Enter reported % Inhibition observed with β-secretase(BACE) (Homo sapiens, UniProt P56817) for CN(C(=O)[C@@H]1CC[C@H](N2Cc3cc(Oc4ccccc4)ccc3N=C2N)C1)C1CCCCC1 [Compound 77]
Result block: <30%

* * *

- ASSAYED_SYSTEM: β-secretase(BACE) (Homo sapiens)
- Construct: purchased Panvera
- EXPERIMENT_SUMMARY: BACE Assay-2 (FS1 substrate, IC50 and Ki)
- Type: biochemical
- CONDITION_SUMMARY: procedure of Example 159, FS1 substrate; read-out: Ki μM (159)
MEASURED_METRIC: Ki (µM)

Completed entries (count: 2):
CCCC(CCCC(=O)NC1CCCCCC1)N1Cc2cc(Oc3ccccc3)ccc2N=C1N (stereo not shown) [Compound 137]; 0.73
Cc1ccccc1Sc1ccc2c(c1)CN(Cc1cccc(C(=O)N(C)C3CCCCC3)c1)C(N)=N2 [Compound 404]; 0.78

A. CN(C(=O)c1cccc(CN2Cc3cc(Oc4cccc(NS(=O)(=O)c5ccccc5)c4)ccc3N=C2N)c1)C1CCCCC1 [Compound 110]
B. CN(C(=O)c1cccc(CN2Cc3cc(-c4ccccc4CO)ccc3N=C2N)c1)C1CCCCC1 [Compound 174]
Query block: Could you point out whether the larger Ki belongs to A or to B ? State the label of the item chosen.
Result block: A
(A: 0.4 µM, B: 0.07 µM)

* * *

- ASSAYED_SYSTEM: β-secretase(BACE) (Homo sapiens, UniProt P56817)
- Construct: purchased Panvera
- EXPERIMENT_SUMMARY: BACE % Inhibition Assay ((Aedens)-[…]-(Dabcyl K-amide) substrate)
- Type: biochemical
- CONDITION_SUMMARY: 3 μM test compound; % error ±10%; read-out: % Inhibition
MEASURED_METRIC: inhibition at 3 µM (%)

I. NC1=Nc2ccc(Oc3ccccc3)cc2CN1C(CCNC(=O)CC1CCCC1)C1CCCCC1 (stereo not shown)
II. CC(C)(C)OC(=O)NCCCN1Cc2cc(Oc3ccccc3)ccc2N=C1N
III. CCCN1Cc2cc(Oc3cccc(NC4CCCCC4)c3)ccc2N=C1N
Query block: Falling order of inhibition at 3 µM, please. Put the labels in the requested order and write them down.
Result block: I, II, III
(I: 113%, II: 56%, III: 34%)
